Ki tested on UniProtKB P41595: recorded values
Sequence (P41595 whole entry): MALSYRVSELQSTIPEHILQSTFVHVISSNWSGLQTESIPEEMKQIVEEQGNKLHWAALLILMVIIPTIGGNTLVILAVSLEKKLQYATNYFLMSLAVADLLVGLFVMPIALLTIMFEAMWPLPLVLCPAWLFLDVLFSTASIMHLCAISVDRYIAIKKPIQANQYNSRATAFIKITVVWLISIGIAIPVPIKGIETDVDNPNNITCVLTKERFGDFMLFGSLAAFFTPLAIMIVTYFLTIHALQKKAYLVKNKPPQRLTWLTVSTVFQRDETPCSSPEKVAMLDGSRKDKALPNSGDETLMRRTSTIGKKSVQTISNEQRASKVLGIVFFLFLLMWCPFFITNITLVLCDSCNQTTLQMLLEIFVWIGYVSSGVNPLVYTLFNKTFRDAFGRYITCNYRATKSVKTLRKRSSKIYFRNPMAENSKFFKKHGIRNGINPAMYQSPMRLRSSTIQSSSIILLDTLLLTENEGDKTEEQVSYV
Answer in nM, number only, no unit symbol.

INSERT INTO results (molecule, reportedendpoint, testresult) VALUES
  ('CNCC(C)CN1c2ccccc2Sc2ccc(OC)cc21 (stereo not drawn)', 'Ki', 27);

Proceeding to the next molecule to report its Ki.
Prompt: Please supply the value of reported Ki for the item COc1ccc2c(c1)N(C[C@H](C)CN(C)C)c1ccccc1S2
Completion: 19

* * *

Target: Dopamine D4.2 (Homo sapiens, UniProt P21917, DEL271-302)
Sequence (P21917 with tags, fused parts or gaps DEL271-302): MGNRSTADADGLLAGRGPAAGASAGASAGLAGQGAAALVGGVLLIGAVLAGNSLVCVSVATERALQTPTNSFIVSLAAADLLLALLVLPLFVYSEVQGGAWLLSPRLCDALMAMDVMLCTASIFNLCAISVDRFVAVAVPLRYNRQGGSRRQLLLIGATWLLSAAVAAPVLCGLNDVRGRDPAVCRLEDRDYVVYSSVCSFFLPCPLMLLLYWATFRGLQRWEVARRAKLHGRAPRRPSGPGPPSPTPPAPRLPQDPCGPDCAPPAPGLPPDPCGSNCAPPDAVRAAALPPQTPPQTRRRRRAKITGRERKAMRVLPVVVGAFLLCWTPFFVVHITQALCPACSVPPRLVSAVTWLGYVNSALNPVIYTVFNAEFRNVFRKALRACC
Assay: Receptor binding, Dopamine D4.2
Collected pKi values appear next to each entry.
// pKi here means minus log10 of the molar concentration (mol/L)

Prompt: Please supply the value of reported pKi for the item CNCC(C)CN1c2ccccc2Sc2ccc(OC)cc21 (stereo not drawn)
Completion: 5.51

Prompt: Please supply the value of reported pKi for the item COc1ccc2c(c1)N(C[C@H](C)CN(C)C)c1ccccc1S2
Completion: 6.11

* * *

Collected pKi values appear next to each entry.
Target: Serotonin 5-HT1A (Homo sapiens)
Sequence (P08908 1-422): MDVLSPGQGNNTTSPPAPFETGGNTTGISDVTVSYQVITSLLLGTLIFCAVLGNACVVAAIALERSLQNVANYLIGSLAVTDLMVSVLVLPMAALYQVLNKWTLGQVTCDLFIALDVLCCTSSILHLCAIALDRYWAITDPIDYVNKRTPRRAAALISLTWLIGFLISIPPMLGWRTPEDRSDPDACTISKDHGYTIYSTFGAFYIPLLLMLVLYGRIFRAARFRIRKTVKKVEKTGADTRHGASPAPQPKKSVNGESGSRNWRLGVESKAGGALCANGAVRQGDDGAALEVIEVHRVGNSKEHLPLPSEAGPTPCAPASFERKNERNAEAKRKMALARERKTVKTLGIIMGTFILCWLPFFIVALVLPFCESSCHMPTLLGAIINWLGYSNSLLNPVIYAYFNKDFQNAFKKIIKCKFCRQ
// pKi here means minus log10 of the molar concentration (mol/L)

INSERT INTO measurements (compound, testresult) VALUES
  ('COc1ccc2c(c1)N(C[C@H](C)CN(C)C)c1ccccc1S2 [LMP, Levomepromazine]', 6.08);

Prompt: Please supply the value of reported pKi for the item CNCC(C)CN1c2ccccc2Sc2ccc(OC)cc21 (stereo not drawn) [NDM LMP]
Completion: 6.19

* * *

Collected pKi values appear next to each entry.
Molecular target: Serotonin 5-HT5A (Homo sapiens)
Sequence (P47898 whole entry): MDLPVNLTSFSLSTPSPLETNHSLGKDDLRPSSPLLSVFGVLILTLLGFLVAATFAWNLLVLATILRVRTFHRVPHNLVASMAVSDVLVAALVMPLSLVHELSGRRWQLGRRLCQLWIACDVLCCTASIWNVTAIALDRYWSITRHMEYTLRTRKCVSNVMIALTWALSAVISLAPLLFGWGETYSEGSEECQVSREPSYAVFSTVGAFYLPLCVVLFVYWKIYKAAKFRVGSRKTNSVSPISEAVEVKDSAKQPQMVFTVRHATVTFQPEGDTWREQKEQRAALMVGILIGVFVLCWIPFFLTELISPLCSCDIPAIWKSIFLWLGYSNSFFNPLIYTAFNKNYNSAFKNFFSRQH
Assay: Receptor binding, Serotonin 5-HT5A
// pKi here means minus log10 of the molar concentration (mol/L)

INSERT INTO assay_data (molecule, reportedendpoint, testresult) VALUES
  ('CNCC(C)CN1c2ccccc2Sc2ccc(OC)cc21 (stereo not drawn) [NDM LMP]', 'pKi', 6.82);

Proceeding to the next molecule to report its pKi.
Prompt: Please supply the value of reported pKi for the item COc1ccc2c(c1)N(C[C@H](C)CN(C)C)c1ccccc1S2 [LMP, Levomepromazine]
Completion: 6.87

* * *

Experiment: Serum protein binding
Type: in vitro ADME
Conditions: serum
reportedEndpoint: fraction unbound
The answer should be written as a number, with no unit following it.

Prompt: Please supply the value of reported fraction unbound for the item CNCC(C)CN1c2ccccc2Sc2ccc(OC)cc21 (stereo not shown)
Completion: 0.01

* * *

pKi: −log10 of the molar value.
pKi tested on UniProt P28223: recorded values
Sequence (P28223 whole entry): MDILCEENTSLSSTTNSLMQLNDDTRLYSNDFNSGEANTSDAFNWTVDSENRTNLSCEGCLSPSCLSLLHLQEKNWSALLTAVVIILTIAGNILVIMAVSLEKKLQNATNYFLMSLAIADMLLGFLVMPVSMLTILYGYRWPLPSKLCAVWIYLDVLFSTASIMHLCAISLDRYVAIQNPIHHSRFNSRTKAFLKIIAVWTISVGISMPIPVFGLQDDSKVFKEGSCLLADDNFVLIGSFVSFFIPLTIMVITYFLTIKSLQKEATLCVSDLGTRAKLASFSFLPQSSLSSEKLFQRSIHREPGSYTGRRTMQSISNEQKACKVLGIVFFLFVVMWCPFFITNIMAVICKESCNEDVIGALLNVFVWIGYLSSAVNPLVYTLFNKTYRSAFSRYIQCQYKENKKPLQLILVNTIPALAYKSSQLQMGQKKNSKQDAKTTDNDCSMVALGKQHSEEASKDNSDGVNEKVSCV

Below, each entry is followed by its recorded pKi result.
INSERT INTO results (molecule, reportedendpoint, testresult) VALUES
  ('COc1ccc2c(c1)N(C[C@H](C)CN(C)C)c1ccccc1S2 [LMP, Levomepromazine]', 'pKi', '> 8.40'),
  ('CNCC(C)CN1c2ccccc2Sc2ccc(OC)cc21 (stereo not drawn) [NDM LMP]', 'pKi', '> 8.40');

Proceeding to the next molecule to report its pKi.
Prompt: // output pKi; input COc1ccc2c(c1)N(C[C@H](C)CN(C)C)c1ccccc1[S+]2[O-] (stereo partly drawn) [Sulfoxide, levomepromazine sulfoxide] ; system UniProt P28223
Completion: 6.39

Every entry's value here was drawn from patent US20050080076A1.
